system: LXRa:RXRa (NR concentration 270 nM, RXRa partner concentration 90 nM); experiment: PBM binding z-score (relative to random genomic background probes); higher = stronger binding; sequences stand for … in GC…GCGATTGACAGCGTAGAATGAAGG
READOUT_LABEL: PBM binding z-score
Please give only the number in your answer, with no unit.

Worked cases, answers included:
RESIDUES: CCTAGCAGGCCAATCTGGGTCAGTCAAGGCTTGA
READOUT_LABEL: PBM binding z-score
QUANTITATIVE_RESULT: 0.419

RESIDUES: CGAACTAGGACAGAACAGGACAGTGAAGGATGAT
READOUT_LABEL: PBM binding z-score
QUANTITATIVE_RESULT: -0.561

RESIDUES: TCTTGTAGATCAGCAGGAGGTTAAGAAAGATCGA
READOUT_LABEL: PBM binding z-score
QUANTITATIVE_RESULT: 0.985

RESIDUES: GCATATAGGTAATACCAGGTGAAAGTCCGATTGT
READOUT_LABEL: PBM binding z-score
QUANTITATIVE_RESULT: 2.05

Tell me the measured PBM binding z-score of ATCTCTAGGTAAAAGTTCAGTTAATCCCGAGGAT , please.
1.89

Tell me the measured PBM binding z-score of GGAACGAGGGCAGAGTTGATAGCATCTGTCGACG , please.
-0.148

Tell me the measured PBM binding z-score of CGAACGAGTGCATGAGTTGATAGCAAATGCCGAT , please.
-0.143

----------
test system: VDR homodimer (NR concentration 270 nM); test: PBM binding z-score (relative to random genomic background probes); higher = stronger binding; sequences stand for … in GC…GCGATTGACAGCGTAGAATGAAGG
Assign Y whenever PBM binding z-score does not fall below 0.9; assign N whenever it does.

Past entries and their recorded results:
RESIDUES: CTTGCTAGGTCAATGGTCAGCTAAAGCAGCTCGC
CLASS_ASSIGNMENT: N
--
RESIDUES: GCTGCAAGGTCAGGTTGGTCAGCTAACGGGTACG
CLASS_ASSIGNMENT: Y
--
RESIDUES: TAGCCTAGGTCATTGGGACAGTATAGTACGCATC
CLASS_ASSIGNMENT: Y
--
RESIDUES: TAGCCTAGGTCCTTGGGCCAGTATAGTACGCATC
CLASS_ASSIGNMENT: N

Item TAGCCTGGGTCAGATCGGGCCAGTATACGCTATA with PBM binding z-score of 0.9 or above?
N

Item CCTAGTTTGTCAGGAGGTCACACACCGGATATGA with PBM binding z-score of 0.9 or above?
Y

Item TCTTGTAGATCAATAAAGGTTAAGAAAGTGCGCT with PBM binding z-score of 0.9 or above?
N

Item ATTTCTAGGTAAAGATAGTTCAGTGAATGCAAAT with PBM binding z-score of 0.9 or above?
Y

Item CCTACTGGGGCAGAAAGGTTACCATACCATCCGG with PBM binding z-score of 0.9 or above?
N

Item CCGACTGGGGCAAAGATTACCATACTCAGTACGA with PBM binding z-score of 0.9 or above?
N

Item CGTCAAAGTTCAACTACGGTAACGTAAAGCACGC with PBM binding z-score of 0.9 or above?
Y

----------
test system: RARa homodimer (NR concentration 270 nM); test: PBM binding z-score (relative to random genomic background probes); higher = stronger binding; sequences stand for … in GC…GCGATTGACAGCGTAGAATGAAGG
Assign yes whenever PBM binding z-score does not fall below 0.3; assign no whenever it does.

Past entries and their recorded results:
RESIDUES: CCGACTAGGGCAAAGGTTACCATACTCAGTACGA
TEST_TARGET: RARa homodimer (NR concentration 270 nM)
CLASS_ASSIGNMENT: yes
//
RESIDUES: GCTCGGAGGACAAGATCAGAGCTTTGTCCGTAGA
TEST_TARGET: RARa homodimer (NR concentration 270 nM)
CLASS_ASSIGNMENT: no
//
RESIDUES: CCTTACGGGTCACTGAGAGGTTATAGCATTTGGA
TEST_TARGET: RARa homodimer (NR concentration 270 nM)
CLASS_ASSIGNMENT: yes
//
RESIDUES: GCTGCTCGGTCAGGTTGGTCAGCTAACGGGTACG
TEST_TARGET: RARa homodimer (NR concentration 270 nM)
CLASS_ASSIGNMENT: no

Item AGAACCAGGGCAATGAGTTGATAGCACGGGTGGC with PBM binding z-score of 0.3 or above?
no

Item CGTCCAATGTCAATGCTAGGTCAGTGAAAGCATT with PBM binding z-score of 0.3 or above?
no

Item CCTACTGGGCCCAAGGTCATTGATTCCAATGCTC with PBM binding z-score of 0.3 or above?
no

Item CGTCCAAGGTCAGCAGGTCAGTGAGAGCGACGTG with PBM binding z-score of 0.3 or above?
yes

Item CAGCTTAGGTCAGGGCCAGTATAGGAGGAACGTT with PBM binding z-score of 0.3 or above?
yes

Item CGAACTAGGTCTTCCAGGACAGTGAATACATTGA with PBM binding z-score of 0.3 or above?
no

Item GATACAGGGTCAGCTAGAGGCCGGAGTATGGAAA with PBM binding z-score of 0.3 or above?
no

Item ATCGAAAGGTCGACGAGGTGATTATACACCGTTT with PBM binding z-score of 0.3 or above?
yes

Item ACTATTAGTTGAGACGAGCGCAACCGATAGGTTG with PBM binding z-score of 0.3 or above?
no

Item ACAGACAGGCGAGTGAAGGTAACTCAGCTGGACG with PBM binding z-score of 0.3 or above?
no

Item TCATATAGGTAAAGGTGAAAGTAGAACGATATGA with PBM binding z-score of 0.3 or above?
yes

Item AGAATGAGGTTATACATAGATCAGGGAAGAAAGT with PBM binding z-score of 0.3 or above?
yes

Item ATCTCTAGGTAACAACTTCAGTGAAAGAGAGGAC with PBM binding z-score of 0.3 or above?
yes

Item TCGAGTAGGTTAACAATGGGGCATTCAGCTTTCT with PBM binding z-score of 0.3 or above?
no

Item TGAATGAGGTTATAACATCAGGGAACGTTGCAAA with PBM binding z-score of 0.3 or above?
no

Item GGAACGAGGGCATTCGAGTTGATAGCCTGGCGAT with PBM binding z-score of 0.3 or above?
no

Item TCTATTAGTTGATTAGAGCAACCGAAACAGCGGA with PBM binding z-score of 0.3 or above?
no

Item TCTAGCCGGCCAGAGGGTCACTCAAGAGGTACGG with PBM binding z-score of 0.3 or above?
no

Item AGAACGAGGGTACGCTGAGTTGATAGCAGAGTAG with PBM binding z-score of 0.3 or above?
no

Item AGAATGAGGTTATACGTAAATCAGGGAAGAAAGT with PBM binding z-score of 0.3 or above?
yes

Item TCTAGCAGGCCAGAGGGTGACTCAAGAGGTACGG with PBM binding z-score of 0.3 or above?
no

Item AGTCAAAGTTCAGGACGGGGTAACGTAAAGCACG with PBM binding z-score of 0.3 or above?
yes

----------
test system: PPARg:RXRa 270nM:90nM, anti-RXR (NR concentration 270 nM, RXRa partner concentration 90 nM); experiment: PBM binding z-score (relative to random genomic background probes); higher = stronger binding; sequences stand for … in GC…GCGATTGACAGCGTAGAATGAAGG
Assign condition met whenever PBM binding z-score does not fall below 2; assign condition not met whenever it does.

Past entries and their recorded results:
RESIDUES: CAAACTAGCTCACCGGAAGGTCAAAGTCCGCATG
CLASS_ASSIGNMENT: condition not met
--
RESIDUES: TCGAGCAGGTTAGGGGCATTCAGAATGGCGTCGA
CLASS_ASSIGNMENT: condition not met
--
RESIDUES: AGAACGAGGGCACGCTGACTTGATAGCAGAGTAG
CLASS_ASSIGNMENT: condition not met
--
RESIDUES: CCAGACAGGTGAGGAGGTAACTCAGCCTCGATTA
CLASS_ASSIGNMENT: condition not met
--
RESIDUES: CGAACTAGGTCAAGGACACTGAATCTCCGCACGC
CLASS_ASSIGNMENT: condition met

Item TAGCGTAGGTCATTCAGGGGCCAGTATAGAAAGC with PBM binding z-score of 2 or above?
condition met

Item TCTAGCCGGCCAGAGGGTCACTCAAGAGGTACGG with PBM binding z-score of 2 or above?
condition not met

Item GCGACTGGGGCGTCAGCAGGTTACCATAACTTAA with PBM binding z-score of 2 or above?
condition not met

Item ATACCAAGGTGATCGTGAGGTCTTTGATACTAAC with PBM binding z-score of 2 or above?
condition not met

Item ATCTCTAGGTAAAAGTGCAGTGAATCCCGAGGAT with PBM binding z-score of 2 or above?
condition met

Item CCGACTGGGGCAAGGTTACAATAACGCACAGCCA with PBM binding z-score of 2 or above?
condition met

Item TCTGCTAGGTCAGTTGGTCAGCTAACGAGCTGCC with PBM binding z-score of 2 or above?
condition not met

Item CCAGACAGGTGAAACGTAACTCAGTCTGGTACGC with PBM binding z-score of 2 or above?
condition not met
